Data origin: paper PMC3894558

// values below are reported Max Resp
System: P. falciparum 3D7 gametocytes
Experiment: alamarBlue gametocyte viability assay, strain 3D7
Assay type: cell-based, Plasmodium falciparum
Settings: Malaria Box; DMSO set at 0%, 100 nM epoxomicin set at -100%
Number only, in %; omit the unit.

> print(dat)
                            compound.smiles                         target  result.units  assay.value
1  O=C(O)C(=O)O.Oc1ccccc1CN1CCN(C(c2ccccc2)c2ccccc2)CC1  P. falciparum 3D7 gametocytes             %          -53
2    CN(C)CCCNCc1ccc(-c2ccc(F)c(Cl)c2)o1.Cl  P. falciparum 3D7 gametocytes             %          -98
3  COc1cc(C(=O)Nc2ccc(-c3nc4ccccc4[nH]3)cc2)cc(OC)c1OC  P. falciparum 3D7 gametocytes             %          -26

IN: Value lookup for Max Resp; key = O=C(O)C(=O)O.Oc1ccc(Br)cc1CN1CCN(Cc2cccc(F)c2)CC1
OUT: -72

IN: Value lookup for Max Resp; key = CN1CCN(c2nc(Nc3ccc(O)cc3)nc3ccccc23)CC1.Cl
OUT: -93
